Consider the following compounds and their measured hERG current change (%, negative = inhibition) at 10uM readings.
Target: human ether-à-go-go-related gene (hERG) potassium channel (human, UniProt Q12809);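 note: peak tail current of the secondary pulse compared with the same well before compound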
Sequence (Q12809 whole entry, looked up): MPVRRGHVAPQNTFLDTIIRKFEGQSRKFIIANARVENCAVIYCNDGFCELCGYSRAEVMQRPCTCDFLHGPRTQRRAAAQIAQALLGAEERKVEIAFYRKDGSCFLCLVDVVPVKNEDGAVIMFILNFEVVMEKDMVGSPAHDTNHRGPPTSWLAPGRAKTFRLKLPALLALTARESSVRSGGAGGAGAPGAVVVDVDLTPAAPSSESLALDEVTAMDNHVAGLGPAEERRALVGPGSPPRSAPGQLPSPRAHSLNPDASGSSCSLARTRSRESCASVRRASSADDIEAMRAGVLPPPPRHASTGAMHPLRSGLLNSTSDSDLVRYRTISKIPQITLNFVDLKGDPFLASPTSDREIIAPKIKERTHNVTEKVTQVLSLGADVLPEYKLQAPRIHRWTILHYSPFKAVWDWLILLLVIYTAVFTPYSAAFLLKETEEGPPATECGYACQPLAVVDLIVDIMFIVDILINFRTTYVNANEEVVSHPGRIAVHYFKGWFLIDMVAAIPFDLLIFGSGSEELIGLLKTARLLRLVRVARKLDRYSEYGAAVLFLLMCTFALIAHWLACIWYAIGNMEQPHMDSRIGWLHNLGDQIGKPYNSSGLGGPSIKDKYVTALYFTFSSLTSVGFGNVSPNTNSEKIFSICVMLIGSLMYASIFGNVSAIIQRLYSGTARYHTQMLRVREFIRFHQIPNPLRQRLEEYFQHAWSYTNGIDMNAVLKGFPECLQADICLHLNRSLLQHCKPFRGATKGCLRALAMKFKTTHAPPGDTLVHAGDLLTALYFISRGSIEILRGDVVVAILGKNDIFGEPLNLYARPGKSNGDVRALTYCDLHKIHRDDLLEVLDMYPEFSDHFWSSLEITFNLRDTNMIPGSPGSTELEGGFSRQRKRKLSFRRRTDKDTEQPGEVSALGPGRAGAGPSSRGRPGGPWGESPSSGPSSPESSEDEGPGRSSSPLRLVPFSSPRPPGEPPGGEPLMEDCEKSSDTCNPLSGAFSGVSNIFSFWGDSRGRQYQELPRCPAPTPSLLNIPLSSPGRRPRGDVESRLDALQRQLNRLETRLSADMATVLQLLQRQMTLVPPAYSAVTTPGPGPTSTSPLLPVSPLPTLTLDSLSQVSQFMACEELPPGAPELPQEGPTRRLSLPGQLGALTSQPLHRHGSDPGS
Experiment: primary screen, population patch clamp on CHO cells stably expressing hERG; higher = less effect of the substance
The campaign covered roughly 310,000 compounds. About 14,000 (4.5%) showed an effect of 50% or more. Effects have a minus sign here. Many of the other results were omitted from the sample, so strong results are more common in it than they were.
readout: hERG current change (%, negative = inhibition) at 10uM (%)

In [3]: df
Out[3]:
                                    compound  units_symbol  recorded_number
 0            C=CCNc1nc(NCCN2CCOCC2)nc(OC)n1             %            -4.89
 1  Cc1cc(C)c(S(=O)(=O)NCC(c2cccnc2)N2CCN(Cc3ccccc3)CC2)c(C)c1 (centres unmarked)             %            -69.5
 2  O=C(COC(=O)c1ncc(Cl)c(Cl)c1Cl)NNC(=O)c1ccccc1             %            -1.26
 3                   Cc1cc(NCc2ccccn2)ccc1Br             %            -16.5
 4  CC(C)C(=O)NC(c1ccccc1Cl)c1c(O)ccc2ccccc12 (centres unmarked)             %             7.79
 5  CCC1(c2ccccc2)NC(=O)N(CC(=O)Nc2ccc3c(c2)OCO3)C1=O (centres unmarked)             %            -6.09
 6  COc1ccc(C(=O)N=c2sc3c(C)ccc(OC)c3n2C)cc1             %             6.32
 7  O=S(=O)(NCC(c1cccnc1)N1CCN(Cc2ccccc2)CC1)c1ccc(Cl)cc1 (centres unmarked)             %            -78.3
 8  CSc1ccc(CN(C)C(=O)CSCC(=O)Nc2cc(C)on2)cc1             %             6.59
 9  Cc1ccc(C(C(=O)NC2CCCC2)N(C(=O)CNC(=O)c2cccs2)c2cccnc2)o1 (centres unmarked)             %            -11.1
10  O=S(=O)(NCC(c1cccnc1)N1CCN(Cc2ccccc2)CC1)c1ccc(F)cc1 (centres unmarked)             %              -65
11  c1ccc(Nc2nc(NCCN3CCOCC3)nc(Nc3ccccc3)n2)cc1             %            -15.2
12     CN(c1ccc(Cl)cc1)c1cc(=O)n(C)c2ccccc12             %            -51.8
13                CC(=O)Nc1c(O)n(C)c2ccccc12             %             13.6
14  O=S(=O)(NCC(c1cccnc1)N1CCc2ccccc2C1)c1ccccc1 (centres unmarked)             %             10.3
15  CC(c1ccco1)N(C(=O)c1ccc(S(=O)(=O)N2CCCCC2)cc1)c1ccccn1 (centres unmarked)             %            -4.75
16   CCOc1ccc(Nc2nc(NCCN3CCOCC3)nc(OC)n2)cc1             %            -63.8
17       O=C(CN1C(=O)c2ccccc2C1=O)NCc1ccncc1             %            -33.1
18  CCN1CCN(C(CNS(=O)(=O)c2ccc(F)cc2)c2cccnc2)CC1 (centres unmarked)             %            -20.5
19  Cc1cc(C)c(S(=O)(=O)NC2CCN(Cc3ccccc3)CC2)c(C)c1.Cl             %            -47.6
20  CC(CCN1CCN(c2ccccc2)CC1)c1ccccc1.Cl (centres unmarked)             %            -54.6
21  COc1cccc(/C=C/C(=O)OCC(=O)Nc2ccc(Cl)cn2)c1             %             28.1
22  CCN(CC(=O)Nc1ccc(NC(C)=O)cc1)C(=O)CSCC(=O)Nc1ccc(C)cc1             %             2.95
23  COc1ccc(C[C@H](N)C(=O)N[C@H]2[C@@H](O)[C@H](n3cnc4c(N(C)C)ncnc43)O[C@@H]2CO)cc1.Cl             %            -5.25
24             COc1cccc(CNCCc2ccccc2)c1OC.Cl             %             5.21
25  CN(C(=O)COc1cc(=O)n(C)c2ccccc12)c1ccc(Cl)cc1             %            -29.2
26  CC(CCN1CCN(c2ccc(F)cc2)CC1)c1ccccc1 (centres unmarked)             %            -64.3
27  NC(=O)CSc1oc(-c2ccc(F)cc2)nc1S(=O)(=O)c1ccccc1             %            -8.24
28        Cl.c1ccc(SCCN2CCN(c3ccccc3)CC2)cc1             %            -10.9
29        CC(C)NC(=O)Cn1nnc(-c2ccc(Cl)cc2)n1             %              4.9
30  O=C(N/N=C/c1cn(CC(=O)N2CCOCC2)c2ccccc12)c1cccnc1             %             16.3
31       c1ccc(N2CCN(Cc3ccnc4ccccc34)CC2)cc1             %           -0.764
32  CC(CCN1CCN(CCO)CC1)c1ccccc1 (centres unmarked)             %             9.32
33          Cc1ccccc1NC(=O)NCc1ccc2c(c1)OCO2             %             11.6
34  O=C1NC(c2ccccc2)CCC1(Cl)Cl (centres unmarked)             %             6.57
35  CNC(=S)N/N=C/C1=CCC2CC1C2(C)C (centres unmarked)             %            -3.84
36  O=S(=O)(NCC(c1cccnc1)N1CCN(Cc2ccccc2)CC1)c1ccccc1 (centres unmarked)             %            -68.9
37  O=C(CN1CCN(c2ccccn2)CC1)Nc1cc(C(F)(F)F)ccc1Cl             %             -3.6
38  CCOc1cc(S(=O)(=O)NC2CC(C)(C)NC(C)(C)C2)ccc1F             %            -9.91
39             COc1ccc(NC(=S)NCCN2CCOCC2)cc1             %             21.7
40  Br.c1ccc(CN2CCC(N=C3NN=C(c4ccc5c(c4)OCCO5)CS3)CC2)cc1             %            -43.1
